Where these numbers come from: paper PMC6698954

target: T1, Recombinant WEEV glycoprotein (E2/E3E2) (Western equine encephalitis virus, …, UniProt P13897); assay: SPR; ProteOn XPR36; […] (20 µg/mL in 10 mM sodium acetate pH 5.0); […]; settings: both partners purified
T1 construct: source: bought: IBT Bioservices
T1 sequence (P13897 whole entry, looked up): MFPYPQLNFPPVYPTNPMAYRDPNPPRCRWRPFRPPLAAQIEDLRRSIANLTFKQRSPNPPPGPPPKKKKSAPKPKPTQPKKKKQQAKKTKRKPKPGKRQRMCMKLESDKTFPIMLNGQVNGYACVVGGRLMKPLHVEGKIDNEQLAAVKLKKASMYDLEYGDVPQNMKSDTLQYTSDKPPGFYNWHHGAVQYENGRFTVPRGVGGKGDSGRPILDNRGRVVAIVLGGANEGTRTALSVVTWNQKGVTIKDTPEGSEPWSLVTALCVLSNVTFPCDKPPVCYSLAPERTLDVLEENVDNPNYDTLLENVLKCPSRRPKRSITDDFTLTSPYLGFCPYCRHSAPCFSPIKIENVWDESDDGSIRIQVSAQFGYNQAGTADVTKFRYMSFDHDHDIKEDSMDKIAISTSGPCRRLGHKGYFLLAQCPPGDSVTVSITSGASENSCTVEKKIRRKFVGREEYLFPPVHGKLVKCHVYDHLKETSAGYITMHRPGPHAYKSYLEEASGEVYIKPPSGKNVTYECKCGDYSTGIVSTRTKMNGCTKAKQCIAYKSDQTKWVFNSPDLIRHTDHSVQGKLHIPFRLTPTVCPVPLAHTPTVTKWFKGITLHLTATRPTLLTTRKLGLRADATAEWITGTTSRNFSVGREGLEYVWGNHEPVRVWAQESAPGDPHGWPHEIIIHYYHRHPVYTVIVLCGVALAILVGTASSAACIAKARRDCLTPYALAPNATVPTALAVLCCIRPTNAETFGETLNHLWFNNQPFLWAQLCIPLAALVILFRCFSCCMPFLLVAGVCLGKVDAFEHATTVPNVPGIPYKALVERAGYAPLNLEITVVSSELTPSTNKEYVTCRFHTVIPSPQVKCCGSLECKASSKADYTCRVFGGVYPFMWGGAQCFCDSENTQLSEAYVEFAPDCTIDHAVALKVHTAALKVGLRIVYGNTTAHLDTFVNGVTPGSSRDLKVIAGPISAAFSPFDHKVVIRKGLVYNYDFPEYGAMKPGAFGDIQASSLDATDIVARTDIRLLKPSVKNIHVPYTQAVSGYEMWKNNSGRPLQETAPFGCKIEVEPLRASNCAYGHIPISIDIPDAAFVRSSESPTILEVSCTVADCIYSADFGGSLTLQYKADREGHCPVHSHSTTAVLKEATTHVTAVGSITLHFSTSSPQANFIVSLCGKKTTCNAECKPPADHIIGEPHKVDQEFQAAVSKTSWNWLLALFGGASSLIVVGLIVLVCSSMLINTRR
READOUT_NAME: Kd (nM)
State the answer as a number, implicitly in nM.

Recorded Kd, per entry:
BINDER: anti-WEEV E2/E3E2 single-domain antibody WC10 (VHH, also called Bt-WC10) VHH: DVQLQASGGGLVEAGGSLRLSCTTSGISVRNSDMGWYRQGPGKQRELIARSSRGGATNYLDSVTGRFTISRDNIKNTVFLQMNSLKPEDTAVYYCNTNPINHWNVWGQGTQVTVSS
Kd, nM: 8.5
//
BINDER: anti-WEEV E2/E3E2 single-domain antibody WH11 (VHH, also called Bt-WH11) VHH: EVQLQASGGGLVQAGGSLRLTCVASGLTFVNYALDWYRQAPGKERELVAGMWSDGVAYYGDFVKGRFTMSRDNAKNMVYLQMNSLEPEDTAVYSCAARSRPTTQYDYWGQGTQVTVSS
Kd, nM: 22
//
BINDER: anti-WEEV E2/E3E2 single-domain antibody WE10 (VHH, also called Bt-WE10) VHH: DVQLQASGGGLVQAGGSLRLSCVASGLTFVNYAIDWYRQAPGKEREVVAGMWNDGVAYYGDFVKGRFTIARDNAKNTVYLQMNNLKPEDTAVYFCGARSRPNLQYDYWGQGTQVTVSS
Kd, nM: 12
//
BINDER: anti-WEEV E2/E3E2 single-domain antibody WD11f (VHH, also called Bt-WD11f) VHH: EVQLQASGGGLVQSGGSLRLSCAGSGGTESSYRMAWFRQAPGTERVFVARVSDGGGSILYADSAKGRFTISRDNGKNTIHLQMFSLKPEDTAVYFCAAAFSWMPPSTVAADYEYWGQGTQVTVSS
Kd, nM: 7.2
//
BINDER: anti-WEEV E2/E3E2 single-domain antibody WF4 (VHH, also called Bt-WF4) VHH: DVQLQASGGGLVQAGGSLRLSCAVSDNTTSLNGMGYYRGPPGKQREFVAYARNNGAPKYADSVMGRFTISVDNSKATVYLQMNNLGPEDTALYYCYAPDRWHTYWAGGTQVTVSS
Kd, nM: 24

Would you kindly look at the next entry?
[ask] Return the recorded Kd value; entry: anti-WEEV E2/E3E2 single-domain antibody WB9 (VHH, also called Bt-WB9) VHH: DVQLQASGGGLVQAGGSLRLSCATSGISVSNSDMGWYRQGPGKQRELVARNSRAGTTNYLDSVKGRFTISRDNAKNMVFLQMNSLKLEDTAVYYCNTNPINRWNIWGQGAQVTVSS
[reply] 2.6
